B1: FAM46D (parent)
chain: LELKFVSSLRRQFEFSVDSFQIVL

Variants of: B1
Assay: protein stability index of a GFP-peptide fusion (GPS, HEK-293T) (PSI 1-6); higher = more stable;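 further: lentivirally expressed fusions sorted by FACS into six bins by GFP to DsRed ratio, PSI derived from sequencing read proportions per bin multiplied by bin number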
Settings: c terminus: a fixed tail appended
MEASURED PARAMETER: protein stability index

1) Q12M 3.09
2) R11C 3.03
3) R11N 3.06
4) F20D 2.94
5) L9A 2.93
6) I22V 3.07
7) F15P 2.92
8) S8C 2.96
9) I22Y 3.01
